- EXPERIMENT_DESCRIPTION: Thermal relaxation of PSS cis states (Arrhenius extrapolation)
- Type: physicochemical
- REPORTED_CONDITIONS: approximate; HBSS buffer + 1% DMSO, extrapolated to 20 °C
READOUT_TYPE: Half-life (thermal relaxation of PSS cis state) (days)

Below, each entry is followed by its recorded Half-life (thermal relaxation of PSS cis state) result.
>>> df
                                   molecule  readout_value
0  Cc1nn(C2CCOCC2)c(C)c1/N=N/c1ccc(O[C@H]2C[C@H](N3CCCCC3)C2)cc1 [Compound 3c]             25
1  Cc1nn(C)c(C)c1/N=N/c1ccc(O[C@H]2C[C@H](N3CCCCC3)C2)cc1 [Compound 3a]             18

[I] Cc1nn(C2CCN(C)CC2)c(C)c1/N=N/c1ccc(O[C@H]2C[C@H](N3CCCCC3)C2)cc1 [Compound 3f]
[II] Cc1nn(C2CCCCC2)c(C)c1/N=N/c1ccc(O[C@H]2C[C@H](N3CCCCC3)C2)cc1 [Compound 3b]
[III] c1ccc(/N=N/c2ccc(O[C@H]3C[C@H](N4CCCCC4)C3)cc2)cc1 [Compound 2]
[IV] Cc1nn(C2CCNCC2)c(C)c1/N=N/c1ccc(O[C@H]2C[C@H](N3CCCCC3)C2)cc1 [Compound 3e]
Exercise: Thanks in advance: please rank these 4 entries by Half-life (thermal relaxation of PSS cis state), highest to lowest. Reply: labels, ordered per the request.
Solution: IV, I, II, III
(IV: 29 days, I: 13 days, II: 7 days, III: 2 days)

----------
- ASSAY_TARGET: H3R (Homo sapiens)
- EXPERIMENT_DESCRIPTION: [3H]NAMH competition radioligand binding on cell homogenates overexpressing H3R
- REPORTED_CONDITIONS: pKi trans ± SEM, trans isomer; [3H]NAMH competition, n = 3
READOUT_TYPE: Ki (nM)

>>> print(df.to_string())
                                        smi  readout_type  units_symbol  readout_value
0  Cc1nn(C2CCNCC2)c(C)c1/N=N/c1ccc(O[C@H]2C[C@H](N3CCCCC3)C2)cc1            Ki            nM          0.501
1  Cc1nn(C2CCN(C)CC2)c(C)c1/N=N/c1ccc(O[C@H]2C[C@H](N3CCCCC3)C2)cc1            Ki            nM          0.501

----------
- ASSAY_TARGET: H3R (Homo sapiens, UniProt Q9Y5N1)
- Sequence (Q9Y5N1 whole entry): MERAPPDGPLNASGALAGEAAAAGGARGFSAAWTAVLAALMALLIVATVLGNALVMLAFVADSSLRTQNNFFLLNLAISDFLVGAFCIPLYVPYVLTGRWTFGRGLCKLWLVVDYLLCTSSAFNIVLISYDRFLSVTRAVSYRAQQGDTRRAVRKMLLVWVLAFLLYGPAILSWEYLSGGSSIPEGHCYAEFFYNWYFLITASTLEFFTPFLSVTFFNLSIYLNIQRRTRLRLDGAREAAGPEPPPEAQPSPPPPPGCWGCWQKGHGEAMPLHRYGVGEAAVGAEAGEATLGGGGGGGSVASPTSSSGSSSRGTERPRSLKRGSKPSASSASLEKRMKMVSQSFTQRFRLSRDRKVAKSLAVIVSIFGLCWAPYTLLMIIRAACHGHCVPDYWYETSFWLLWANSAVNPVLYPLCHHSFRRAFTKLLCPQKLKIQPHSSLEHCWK
- EXPERIMENT_DESCRIPTION: Functional H3R NanoBiT-PKA (cAMP sensor) assay in transiently transfected HEK293T cells
- REPORTED_CONDITIONS: inhibition of forskolin-stimulated cAMP signal, agonist alone
READOUT_TYPE: EC50 (nM)
Report the figure in nM without appending any unit label.

Test item c1cc(Cc2cnc[nH]2)ccn1 [immethridine, reference compound] ; H3R (Homo sapiens, UniProt Q9Y5N1); reported EC50 was 0.794

----------
- EXPERIMENT_DESCRIPTION: UV-vis spectra of trans and PSS cis states in HBSS buffer
- Assay type: physicochemical
- REPORTED_CONDITIONS: 25 μM in HBSS buffer containing 1% DMSO
READOUT_TYPE: λmax cis (nm)

>>> print(df.to_string())
                                        smi  readout_value
0  Cc1nn(C2CCN(C)CC2)c(C)c1/N=N/c1ccc(O[C@H]2C[C@H](N3CCCCC3)C2)cc1            439
1  Cc1nn(C)c(C)c1/N=N/c1ccc(O[C@H]2C[C@H](N3CCCCC3)C2)cc1            439
2  c1ccc(/N=N/c2ccc(O[C@H]3C[C@H](N4CCCCC4)C3)cc2)cc1            425
3  Cc1nn(C2CCOCC2)c(C)c1/N=N/c1ccc(O[C@H]2C[C@H](N3CCCCC3)C2)cc1            440
4  Cc1nn(C2CCNCC2)c(C)c1/N=N/c1ccc(O[C@H]2C[C@H](N3CCCCC3)C2)cc1            434
5  Cc1nn(C2CCCCC2)c(C)c1/N=N/c1ccc(O[C@H]2C[C@H](N3CCCCC3)C2)cc1            440

----------
- ASSAY_TARGET: H3R (Homo sapiens)
- EXPERIMENT_DESCRIPTION: [3H]NAMH competition radioligand binding on cell homogenates overexpressing H3R
- REPORTED_CONDITIONS: (high-affinity state)/(low-affinity state); ↓ lower affinity of PSS cis state than trans
Below, each entry is listed alongside its reported Fold Ki shift.

Below, each entry is followed by its recorded Fold Ki shift result.
In [3]: df
Out[3]:
                                        smi        assay_target  readout_value
0  Cc1nn(C2CCNCC2)c(C)c1/N=N/c1ccc(O[C@H]2C[C@H](N3CCCCC3)C2)cc1  H3R (Homo sapiens)    25.1 ↓ fold
1  Cc1nn(C2CCCCC2)c(C)c1/N=N/c1ccc(O[C@H]2C[C@H](N3CCCCC3)C2)cc1  H3R (Homo sapiens)    12.6 ↓ fold
2  Cc1nn(C2CCOCC2)c(C)c1/N=N/c1ccc(O[C@H]2C[C@H](N3CCCCC3)C2)cc1  H3R (Homo sapiens)    20.0 ↓ fold

Kindly review the next molecule as well.
Entry `Cc1nn(C)c(C)c1/N=N/c1ccc(O[C@H]2C[C@H](N3CCCCC3)C2)cc1` ; Fold Ki shift = 7.9 ↓ fold

----------
- EXPERIMENT_DESCRIPTION: Photostationary state area percentages by LC-MS at the isosbestic point
- Assay type: physicochemical
- REPORTED_CONDITIONS: illumination of PSS cis state with 506 ± 20 nm at 1 mM in DMSO for 10 min
READOUT_TYPE: PSStrans (area %trans) (area %)

                                   compound  units_symbol  readout_value
0  Cc1nn(C2CCCCC2)c(C)c1/N=N/c1ccc(O[C@H]2C[C@H](N3CCCCC3)C2)cc1 [Compound 3b]        area %             94
1  Cc1nn(C2CCNCC2)c(C)c1/N=N/c1ccc(O[C@H]2C[C@H](N3CCCCC3)C2)cc1 [Compound 3e]        area %             92
2  Cc1nn(C)c(C)c1/N=N/c1ccc(O[C@H]2C[C@H](N3CCCCC3)C2)cc1 [Compound 3a]        area %             93
3  Cc1nn(C2CCN(C)CC2)c(C)c1/N=N/c1ccc(O[C@H]2C[C@H](N3CCCCC3)C2)cc1 [Compound 3f]        area %             93
4  Cc1nn(C2CCOCC2)c(C)c1/N=N/c1ccc(O[C@H]2C[C@H](N3CCCCC3)C2)cc1 [Compound 3c]        area %             95

----------
- EXPERIMENT_DESCRIPTION: Photostationary state area percentages by LC-MS at the isosbestic point
- Assay type: physicochemical
- REPORTED_CONDITIONS: after illumination of trans isomer with 365 ± 10 nm at 1 mM in DMSO for 10 min
READOUT_TYPE: PSScis (area %cis) (area %)

                                   compound        readout_type  readout_value
0  Cc1nn(C2CCN(C)CC2)c(C)c1/N=N/c1ccc(O[C@H]2C[C@H](N3CCCCC3)C2)cc1 [Compound 3f]  PSScis (area %cis)             98
1  Cc1nn(C2CCNCC2)c(C)c1/N=N/c1ccc(O[C@H]2C[C@H](N3CCCCC3)C2)cc1 [Compound 3e]  PSScis (area %cis)             99
2  Cc1nn(C)c(C)c1/N=N/c1ccc(O[C@H]2C[C@H](N3CCCCC3)C2)cc1 [Compound 3a]  PSScis (area %cis)             95
3  Cc1nn(C2CCOCC2)c(C)c1/N=N/c1ccc(O[C@H]2C[C@H](N3CCCCC3)C2)cc1 [Compound 3c]  PSScis (area %cis)             94
4  Cc1nn(C2CCCCC2)c(C)c1/N=N/c1ccc(O[C@H]2C[C@H](N3CCCCC3)C2)cc1 [Compound 3b]  PSScis (area %cis)             88
5  c1ccc(/N=N/c2ccc(O[C@H]3C[C@H](N4CCCCC4)C3)cc2)cc1 [Compound 2]  PSScis (area %cis)             97

----------
- EXPERIMENT_DESCRIPTION: UV-vis spectra of trans and PSS cis states in HBSS buffer
- Format: physicochemical
- REPORTED_CONDITIONS: 25 μM in HBSS buffer containing 1% DMSO
- Protocol: Experimental procedures – Photochemistry UV−Vis spectra were recorded using a Thermo-scientific Evolution 201 PC spectrophotometer equipped with a thermostated cell holder set at 20 °C. Fits of UV−vis spectroscopy data were generated using Prism 10.1.0. […] The light intensity used for the lambda 10-3 optical filter is 0.93 mW/mm2 using the 360 ± 20 nm filter, 0.79 mW/mm2 for the 434 ± 9 nm filter, 0.77 mW/mm2 for the 494 ± 9 nm filter as measured using a Thorlabs PM16−401 power meter. […]
READOUT_TYPE: λmax trans (nm)

In [3]: df
Out[3]:
                                        smi  readout_value
0  Cc1nn(C2CCCCC2)c(C)c1/N=N/c1ccc(O[C@H]2C[C@H](N3CCCCC3)C2)cc1            351
1  c1ccc(/N=N/c2ccc(O[C@H]3C[C@H](N4CCCCC4)C3)cc2)cc1            350
2  Cc1nn(C)c(C)c1/N=N/c1ccc(O[C@H]2C[C@H](N3CCCCC3)C2)cc1            347
3  Cc1nn(C2CCNCC2)c(C)c1/N=N/c1ccc(O[C@H]2C[C@H](N3CCCCC3)C2)cc1            346
4  Cc1nn(C2CCOCC2)c(C)c1/N=N/c1ccc(O[C@H]2C[C@H](N3CCCCC3)C2)cc1            349
5  Cc1nn(C2CCN(C)CC2)c(C)c1/N=N/c1ccc(O[C@H]2C[C@H](N3CCCCC3)C2)cc1            348
